- assay-target: CYP2C8 (Homo sapiens)
- Sequence (P10632 1-490): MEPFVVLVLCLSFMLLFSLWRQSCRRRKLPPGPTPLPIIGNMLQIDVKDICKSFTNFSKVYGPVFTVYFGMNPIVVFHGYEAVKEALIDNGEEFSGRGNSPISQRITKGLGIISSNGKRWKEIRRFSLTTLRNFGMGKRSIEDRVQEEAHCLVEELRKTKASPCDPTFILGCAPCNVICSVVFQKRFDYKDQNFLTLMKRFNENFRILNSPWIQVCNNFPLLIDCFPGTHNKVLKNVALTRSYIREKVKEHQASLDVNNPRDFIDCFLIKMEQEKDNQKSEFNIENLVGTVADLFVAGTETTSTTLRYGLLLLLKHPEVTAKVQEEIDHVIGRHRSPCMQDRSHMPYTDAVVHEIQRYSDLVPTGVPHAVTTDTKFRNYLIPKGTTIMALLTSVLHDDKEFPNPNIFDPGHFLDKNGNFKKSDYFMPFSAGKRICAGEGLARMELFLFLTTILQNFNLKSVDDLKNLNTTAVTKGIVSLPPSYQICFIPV
- Assay type: in vitro ADME
pIC50: −log10 of the molar value.
reported-metric: pIC50

Ask: # pIC50 lookup, item COC/C=C/C(=O)N1CC[C@@H](n2nc(-c3ccc(Oc4ccccc4)cc3)c(C(N)=O)c2N)C1
Reply: < 4.60

----------
- Tested on: Pfeiffer
- measurement-description: Cell viability assay (CellTiter-Blue), Pfeiffer
- Assay type: cell-based, human
- assay-setup: Homo sapiens; Pfeiffer cells; read-out: IC50 (nM), growth of Pfeiffer
reported-metric: IC50 (nM)
// units = nM; emit number, no label

Ask: # IC50 lookup, item C=CC(=O)N1CCC[C@@H](n2nc(-c3ccc(Oc4ccccc4)cc3)c3c(N)ncnc32)C1 [ibrutinib, reference compound]
Reply: 45.9

----------
- Test system: TMD8
- measurement-description: Cell viability assay (CellTiter-Blue), TMD8
- Assay type: cell-based, human
- assay-setup: TMD8 cells; read-out: IC50 (nM), growth of TMD8
reported-metric: IC50 (nM)
// units = nM; emit number, no label

Ask: # IC50 lookup, item COC/C=C/C(=O)N1CC[C@@H](n2nc(-c3ccc(Oc4ccccc4)cc3)c(C(N)=O)c2N)C1 [SY-1530]
Reply: 15.6

----------
- assay-target: JAK3 (Homo sapiens)
- Sequence (P52333 whole entry): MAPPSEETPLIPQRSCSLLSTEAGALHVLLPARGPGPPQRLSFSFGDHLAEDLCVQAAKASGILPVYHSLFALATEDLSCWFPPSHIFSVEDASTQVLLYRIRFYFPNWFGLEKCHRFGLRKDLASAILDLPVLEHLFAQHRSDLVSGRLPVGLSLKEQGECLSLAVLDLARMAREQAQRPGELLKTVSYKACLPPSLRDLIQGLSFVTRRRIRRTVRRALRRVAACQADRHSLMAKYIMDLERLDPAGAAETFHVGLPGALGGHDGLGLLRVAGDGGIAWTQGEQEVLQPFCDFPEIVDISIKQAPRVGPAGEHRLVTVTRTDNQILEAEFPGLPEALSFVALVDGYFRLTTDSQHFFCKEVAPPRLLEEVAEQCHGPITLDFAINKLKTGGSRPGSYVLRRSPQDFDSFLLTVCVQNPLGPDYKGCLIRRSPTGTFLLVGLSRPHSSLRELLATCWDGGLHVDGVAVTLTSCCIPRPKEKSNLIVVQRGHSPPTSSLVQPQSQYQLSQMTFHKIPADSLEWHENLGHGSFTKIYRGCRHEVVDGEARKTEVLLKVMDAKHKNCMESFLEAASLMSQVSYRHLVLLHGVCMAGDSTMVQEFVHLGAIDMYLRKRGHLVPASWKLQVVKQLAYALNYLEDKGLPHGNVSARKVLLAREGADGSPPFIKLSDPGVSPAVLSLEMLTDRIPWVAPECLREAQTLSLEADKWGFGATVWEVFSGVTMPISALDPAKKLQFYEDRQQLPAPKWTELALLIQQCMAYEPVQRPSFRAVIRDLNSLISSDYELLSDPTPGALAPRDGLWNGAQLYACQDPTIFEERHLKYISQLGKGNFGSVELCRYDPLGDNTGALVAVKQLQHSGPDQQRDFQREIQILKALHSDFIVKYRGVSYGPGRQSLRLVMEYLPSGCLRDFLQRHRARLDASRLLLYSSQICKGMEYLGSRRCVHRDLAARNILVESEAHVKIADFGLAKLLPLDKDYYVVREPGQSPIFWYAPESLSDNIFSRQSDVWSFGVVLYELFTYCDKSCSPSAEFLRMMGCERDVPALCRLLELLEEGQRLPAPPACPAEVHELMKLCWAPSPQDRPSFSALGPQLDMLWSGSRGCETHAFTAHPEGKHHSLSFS
- measurement-description: HTRF kinase assay, JAK3
- assay-setup: read-out: IC50 (nM), JAK3; HTRF
reported-metric: IC50

Ask: IC50 of COC/C=C/C(=O)N1CC[C@@H](n2nc(-c3ccc(Oc4ccccc4)cc3)c(C(N)=O)c2N)C1 on JAK3 (Homo sapiens)?
Reply: > 10000 nM

----------
- assay-target: CYP2B6 (Homo sapiens)
- Sequence (P20813 1-491): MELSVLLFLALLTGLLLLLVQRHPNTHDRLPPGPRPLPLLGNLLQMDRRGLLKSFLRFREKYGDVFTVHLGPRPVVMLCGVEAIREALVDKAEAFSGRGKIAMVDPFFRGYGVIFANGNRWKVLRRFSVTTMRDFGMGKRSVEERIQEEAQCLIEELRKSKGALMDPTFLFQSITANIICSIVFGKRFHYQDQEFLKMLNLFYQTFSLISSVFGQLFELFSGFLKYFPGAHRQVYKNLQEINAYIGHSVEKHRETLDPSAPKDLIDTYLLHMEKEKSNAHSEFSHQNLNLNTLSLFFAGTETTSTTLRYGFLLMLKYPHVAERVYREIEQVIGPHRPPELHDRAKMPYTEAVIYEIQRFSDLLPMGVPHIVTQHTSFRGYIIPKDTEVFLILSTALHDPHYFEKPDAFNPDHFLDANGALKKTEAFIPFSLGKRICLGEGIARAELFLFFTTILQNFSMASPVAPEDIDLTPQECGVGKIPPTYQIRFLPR
- Format: in vitro ADME
reported-metric: IC50

Ask: # IC50 lookup, item COC/C=C/C(=O)N1CC[C@@H](n2nc(-c3ccc(Oc4ccccc4)cc3)c(C(N)=O)c2N)C1
Reply: > 25 µM

----------
- assay-target: TEC (Homo sapiens, UniProt P42680)
- Sequence (P42680 1-631): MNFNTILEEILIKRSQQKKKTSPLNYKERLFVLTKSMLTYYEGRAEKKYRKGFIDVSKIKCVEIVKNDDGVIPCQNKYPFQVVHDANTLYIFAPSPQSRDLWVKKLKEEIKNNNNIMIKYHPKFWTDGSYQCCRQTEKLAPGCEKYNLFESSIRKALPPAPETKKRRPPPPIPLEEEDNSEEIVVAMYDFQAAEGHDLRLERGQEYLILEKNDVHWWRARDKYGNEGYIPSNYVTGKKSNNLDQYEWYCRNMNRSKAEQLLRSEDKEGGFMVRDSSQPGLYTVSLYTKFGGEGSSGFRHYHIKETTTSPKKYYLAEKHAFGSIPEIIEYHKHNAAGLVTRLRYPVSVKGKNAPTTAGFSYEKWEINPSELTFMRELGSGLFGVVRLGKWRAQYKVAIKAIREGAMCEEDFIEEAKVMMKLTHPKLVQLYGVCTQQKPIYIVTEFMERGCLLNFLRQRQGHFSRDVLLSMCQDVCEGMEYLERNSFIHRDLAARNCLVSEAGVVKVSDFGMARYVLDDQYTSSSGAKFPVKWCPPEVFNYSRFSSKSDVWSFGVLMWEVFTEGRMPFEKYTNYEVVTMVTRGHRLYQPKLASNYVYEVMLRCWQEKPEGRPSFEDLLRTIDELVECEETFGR
- measurement-description: HTRF kinase assay, TEC
- assay-setup: read-out: IC50 (nM), TEC; HTRF
reported-metric: IC50 (nM)
// units = nM; emit number, no label

Ask: # IC50 lookup, item COC/C=C/C(=O)N1CC[C@@H](n2nc(-c3ccc(Oc4ccccc4)cc3)c(C(N)=O)c2N)C1
Reply: 10.4

----------
- assay-target: HER2 (Homo sapiens, UniProt P04626)
- Sequence (P04626 23-1255): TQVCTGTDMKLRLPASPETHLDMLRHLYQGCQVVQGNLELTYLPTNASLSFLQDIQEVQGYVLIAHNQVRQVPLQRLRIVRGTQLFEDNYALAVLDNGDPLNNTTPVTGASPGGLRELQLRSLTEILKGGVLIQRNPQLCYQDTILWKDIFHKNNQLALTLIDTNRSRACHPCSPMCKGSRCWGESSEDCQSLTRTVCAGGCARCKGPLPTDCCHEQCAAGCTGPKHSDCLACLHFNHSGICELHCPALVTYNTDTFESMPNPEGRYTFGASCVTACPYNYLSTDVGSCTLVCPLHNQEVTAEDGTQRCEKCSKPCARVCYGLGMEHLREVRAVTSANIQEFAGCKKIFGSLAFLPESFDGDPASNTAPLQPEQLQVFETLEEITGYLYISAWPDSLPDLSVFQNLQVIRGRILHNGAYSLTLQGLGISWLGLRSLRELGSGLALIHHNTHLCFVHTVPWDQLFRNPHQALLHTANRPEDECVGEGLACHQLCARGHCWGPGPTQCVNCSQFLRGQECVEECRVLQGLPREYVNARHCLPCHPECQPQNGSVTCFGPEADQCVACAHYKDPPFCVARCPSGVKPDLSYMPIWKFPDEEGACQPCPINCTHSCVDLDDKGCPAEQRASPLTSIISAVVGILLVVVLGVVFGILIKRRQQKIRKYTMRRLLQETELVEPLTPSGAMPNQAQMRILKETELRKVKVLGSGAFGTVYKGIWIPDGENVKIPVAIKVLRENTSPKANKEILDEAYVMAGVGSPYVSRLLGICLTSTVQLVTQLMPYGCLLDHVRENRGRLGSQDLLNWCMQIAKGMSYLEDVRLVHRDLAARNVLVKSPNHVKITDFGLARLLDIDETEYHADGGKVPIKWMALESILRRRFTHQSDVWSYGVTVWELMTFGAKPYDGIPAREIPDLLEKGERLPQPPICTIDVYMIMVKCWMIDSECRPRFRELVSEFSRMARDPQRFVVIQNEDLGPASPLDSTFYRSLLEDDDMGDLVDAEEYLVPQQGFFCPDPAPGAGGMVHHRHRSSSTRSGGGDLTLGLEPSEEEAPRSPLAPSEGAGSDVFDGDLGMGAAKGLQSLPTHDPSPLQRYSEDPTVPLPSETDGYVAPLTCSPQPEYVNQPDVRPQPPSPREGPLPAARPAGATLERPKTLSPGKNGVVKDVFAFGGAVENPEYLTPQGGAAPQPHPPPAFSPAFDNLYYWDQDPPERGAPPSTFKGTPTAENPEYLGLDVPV
- measurement-description: HTRF kinase assay, HER2
- assay-setup: read-out: IC50 (nM), HER2; HTRF
reported-metric: IC50

Ask: # IC50 lookup, item COC/C=C/C(=O)N1CC[C@@H](n2nc(-c3ccc(Oc4ccccc4)cc3)c(C(N)=O)c2N)C1 [SY-1530]
Reply: > 10000 nM

Where these numbers come from: paper PMC9334755
